Assayed system: T1, DLG3_1, Q92796
T1 sequence (Q92796 125-227, limits assumed, looked up): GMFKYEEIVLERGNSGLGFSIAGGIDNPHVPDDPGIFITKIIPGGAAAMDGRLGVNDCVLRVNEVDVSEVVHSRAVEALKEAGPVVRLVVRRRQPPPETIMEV
Protocol notes: holdup assay
Parameters: key: below the threshold = too weak to quantify, mostly under pKd 3.1 to 4
Experimental parameters: plain residues with an end cap or a label only (N-terminal biotin on a linker: ado-ado)
Endpoint label: pKd

Binder: NSTHNLKDYV [CLDN20, P56880]
Endpoint label: pKd
Reported result: below the threshold

Binder: GQNMTVSVVI [PRLHR, P49683]
Endpoint label: pKd
Reported result: below the threshold

Binder: ELKAEDEVQI [DCHS2, Q6V1P9]
Endpoint label: pKd
Reported result: below the threshold

Binder: EPAKETTTNV [SLC2A3, P11169]
Endpoint label: pKd
Reported result: 3.48
